- Test system: 616215-338-R-J1-PDC tumor spheroids, viability
- Protocol Text: Anticancer human tumor 616215-338-R-J1-PDC patient-derived colon adenocarcinoma cell line growth inhibition [GQUAD]
- Measurement Setup: second compound 0.0316 µM; first compound 1 µM; stronger effect = lower value; spheroids with HUVEC and MSC
Quantity Kind: viability, T/C (%)
I only need the number, in %, no unit after it.

In the examples that follow, each entry is paired with its recorded viability, T/C.
| Compound | viability, T/C, % |
| --- | --- |
| CC(C)(O)C1CCC(Nc2ccc3ncc(-c4cccc(C(F)(F)F)c4)n3n2)CC1 (stereo unspecified) + Cc1cnc(CNC(=O)c2c(=O)c3ccc(N4CCCN(C)CC4)nc3n3c2sc2ccccc23)cn1 | 19.8 |
| CC1COCCN1c1cc(-c2ccnn2C)c2ccnc(-c3ccn[nH]3)c2n1 (stereo unspecified) + Cc1cnc(CNC(=O)c2c(=O)c3ccc(N4CCCN(C)CC4)nc3n3c2sc2ccccc23)cn1 | 24.8 |
| Nc1ccn(C2OC(CO)C(O)C2(F)F)c(=O)n1 (stereo unspecified) + Cc1[nH]c2ccc(F)cc2c1-c1nc2c3cccnc3c3ncccc3c2[nH]1 | 13.7 |
| Cc1cccc(N(C)C(=O)C2C(O)CCN2c2nc(C)cc(C(F)(F)F)c2C#N)c1 (stereo unspecified) + Cc1cnc(CNC(=O)c2c(=O)c3ccc(N4CCCN(C)CC4)nc3n3c2sc2ccccc23)cn1 | 103 |
| O=C(c1cc(Cc2n[nH]c(=O)c3ccccc23)ccc1F)N1CCN(C(=O)C2CC2)CC1 + Cc1[nH]c2ccc(F)cc2c1-c1nc2c3cccnc3c3ncccc3c2[nH]1 | 101 |

## Task # return viability, T/C of CC(C)n1c(=O)n(C)c2cnc3cc(F)c(-c4ccc(OCCCN5CCCCC5)nc4)cc3c21 + CN(C)c1ccc(Nc2c3ccc(NC(=O)CCN4CCCC4)cc3nc3cc(NC(=O)CCN4CCCC4)ccc23)cc1 (system: 616215-338-R-J1-PDC tumor spheroids, viability)
## Result 109

###

The entries below are paired with their reported pIC50.
- System: 616215-338-R-J1-PDC tumor spheroids, viability
- Protocol Text: Anticancer human tumor 616215-338-R-J1-PDC cell line growth inhibition [GQUAD];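 note: spheroids exposed to agents for 7 days before readout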
- Measurement Setup: curve of first compound; second compound 0.0316 µM; spheroids with HUVEC and MSC
Just the number, please; pIC50 means minus log10 of the concentration in mol/L.

In the examples that follow, each entry is paired with its recorded pIC50.
| Molecule | Assay Result |
| --- | --- |
| CC1COCCN1c1cc(C2(O)CC3CCC(C2)O3)c2cnn(-c3ccn[nH]3)c2n1 (stereo not drawn) + Cc1[nH]c2ccc(F)cc2c1-c1nc2c3cccnc3c3ncccc3c2[nH]1 | 6.63 |
| CC(C)(O)C1CCC(Nc2ccc3ncc(-c4cccc(C(F)(F)F)c4)n3n2)CC1 (stereo not drawn) + Cc1[nH]c2ccc(F)cc2c1-c1nc2c3cccnc3c3ncccc3c2[nH]1 | 6.21 |
| Cc1[nH]c2ccccc2c1CCNCc1ccc(/C=C/C(=O)NO)cc1 + CN(C)c1ccc(Nc2c3ccc(NC(=O)CCN4CCCC4)cc3nc3cc(NC(=O)CCN4CCCC4)ccc23)cc1 | 6.76 |
| CC(C)(O)C1CCC(Nc2ccc3ncc(-c4cccc(C(F)(F)F)c4)n3n2)CC1 (stereo not drawn) + Cc1cnc(CNC(=O)c2c(=O)c3ccc(N4CCCN(C)CC4)nc3n3c2sc2ccccc23)cn1 | 6.24 |
| CC1COCCN1c1cc(C2(S(C)(=N)=O)CC2)nc(-c2ccnc3[nH]ccc23)n1 (stereo not drawn) + CN(C)c1ccc(Nc2c3ccc(NC(=O)CCN4CCCC4)cc3nc3cc(NC(=O)CCN4CCCC4)ccc23)cc1 | 5.55 |

## Task Determine its reported pIC50: CC1COCCN1c1cc(C2(S(C)(=N)=O)CC2)nc(-c2ccnc3[nH]ccc23)n1 (stereo not drawn) + Cc1cnc(CNC(=O)c2c(=O)c3ccc(N4CCCN(C)CC4)nc3n3c2sc2ccccc23)cn1
## Result 5.62

## Task Determine its reported pIC50: O=C(NO)c1cnc(N2CCN(S(=O)(=O)c3ccc4ccccc4c3)CC2)nc1 + CN(C)c1ccc(Nc2c3ccc(NC(=O)CCN4CCCC4)cc3nc3cc(NC(=O)CCN4CCCC4)ccc23)cc1
## Result 6.49

## Task Determine its reported pIC50: CC1COCCN1c1cc(C2(S(C)(=N)=O)CC2)nc(-c2ccnc3[nH]ccc23)n1 (stereo not drawn) + Cc1[nH]c2ccc(F)cc2c1-c1nc2c3cccnc3c3ncccc3c2[nH]1
## Result 5.03

## Task Determine its reported pIC50: O=C(NO)c1cnc(N2CCN(S(=O)(=O)c3ccc4ccccc4c3)CC2)nc1 + Cc1cnc(CNC(=O)c2c(=O)c3ccc(N4CCCN(C)CC4)nc3n3c2sc2ccccc23)cn1
## Result 6.30

## Task Determine its reported pIC50: COc1cccc2c1C(=O)c1c(O)c3c(c(O)c1C2=O)CC(O)(C(=O)CO)CC3OC1CC(N)C(O)C(C)O1 (stereo not drawn) + Cc1[nH]c2ccc(F)cc2c1-c1nc2c3cccnc3c3ncccc3c2[nH]1
## Result 6.11

## Task Determine its reported pIC50: CC[C@@]1(O)C(=O)OCc2c1cc1n(c2=O)Cc2cc3c(CN(C)C)c(O)ccc3nc2-1 + CN(C)c1ccc(Nc2c3ccc(NC(=O)CCN4CCCC4)cc3nc3cc(NC(=O)CCN4CCCC4)ccc23)cc1
## Result 6.55

## Task Determine its reported pIC50: CCc1c2c(nc3ccc(O)cc13)-c1cc3c(c(=O)n1C2)COC(=O)[C@]3(O)CC + CN(C)c1ccc(Nc2c3ccc(NC(=O)CCN4CCCC4)cc3nc3cc(NC(=O)CCN4CCCC4)ccc23)cc1
## Result 7.84

###

- Test system: 616215-338-R-J1-PDC tumor spheroids, viability
- Protocol Text: Anticancer human tumor 616215-338-R-J1-PDC cell line growth inhibition [GQUAD];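 note: spheroids exposed to agents for 7 days before readout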;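 for viability, T/C: percent viability relative to DMSO vehicle control wells taken as 100%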
- Measurement Setup: second compound 0.316 µM; first compound 0.316 µM; stronger effect = lower value; spheroids with HUVEC and MSC
- Source text: DNA G-quadruplex Stabilizer Agents in Combinations in Complex Spheroids A high-throughput screen of multi-cell type tumor spheroids was designed to identify active combinations of DNA G-quadruplex stabilizer agents and targeted small molecules. […] Compounds. […] If the clinical Cmax for an agent had not been determined, the highest concentration tested was 10 microM. […]
Consider the following partition of reported viability, T/C into named classes: lo: < 30%; med: ≥ 30% and < 50%; hi: ≥ 50%

| Compound | Target System | Label Class |
| --- | --- | --- |
| Nc1ccn(C2OC(CO)C(O)C2(F)F)c(=O)n1 (stereo not given) + Cc1[nH]c2ccc(F)cc2c1-c1nc2c3cccnc3c3ncccc3c2[nH]1 | 616215-338-R-J1-PDC tumor spheroids, viability | lo |
| CC(C)(O)C1CCC(Nc2ccc3ncc(-c4cccc(C(F)(F)F)c4)n3n2)CC1 (stereo not given) + Cc1[nH]c2ccc(F)cc2c1-c1nc2c3cccnc3c3ncccc3c2[nH]1 | 616215-338-R-J1-PDC tumor spheroids, viability | hi |
| CC(=O)O[C@H]1C(=O)[C@@]2(C)[C@H]([C@H](OC(=O)c3ccccc3)[C@]3(O)C[C@H](OC(=O)[C@H](O)[C@@H](NC(=O)c4ccccc4)c4ccccc4)C(C)=C1C3(C)C)[C@]1(OC(C)=O)CO[C@@H]1C[C@@H]2O + Cc1[nH]c2ccc(F)cc2c1-c1nc2c3cccnc3c3ncccc3c2[nH]1 | 616215-338-R-J1-PDC tumor spheroids, viability | lo |
| CC(C)n1c(=O)n(C)c2cnc3cc(F)c(-c4ccc(OCCCN5CCCCC5)nc4)cc3c21 + Cc1cnc(CNC(=O)c2c(=O)c3ccc(N4CCCN(C)CC4)nc3n3c2sc2ccccc23)cn1 | 616215-338-R-J1-PDC tumor spheroids, viability | hi |
| CC(C)n1c(=O)n(C)c2cnc3cc(F)c(-c4ccc(OCCCN5CCCCC5)nc4)cc3c21 + Cc1[nH]c2ccc(F)cc2c1-c1nc2c3cccnc3c3ncccc3c2[nH]1 | 616215-338-R-J1-PDC tumor spheroids, viability | hi |
| CC1COCCN1c1cc(-c2ccnn2C)c2ccnc(-c3ccn[nH]3)c2n1 (stereo not given) + Cc1cnc(CNC(=O)c2c(=O)c3ccc(N4CCCN(C)CC4)nc3n3c2sc2ccccc23)cn1 | 616215-338-R-J1-PDC tumor spheroids, viability | lo |
| CC(=O)O[C@H]1C(=O)[C@@]2(C)[C@H]([C@H](OC(=O)c3ccccc3)[C@]3(O)C[C@H](OC(=O)[C@H](O)[C@@H](NC(=O)c4ccccc4)c4ccccc4)C(C)=C1C3(C)C)[C@]1(OC(C)=O)CO[C@@H]1C[C@@H]2O + Cc1cnc(CNC(=O)c2c(=O)c3ccc(N4CCCN(C)CC4)nc3n3c2sc2ccccc23)cn1 | 616215-338-R-J1-PDC tumor spheroids, viability | med |
| CC(=O)O[C@H]1C(=O)[C@@]2(C)[C@H]([C@H](OC(=O)c3ccccc3)[C@]3(O)C[C@H](OC(=O)[C@H](O)[C@@H](NC(=O)c4ccccc4)c4ccccc4)C(C)=C1C3(C)C)[C@]1(OC(C)=O)CO[C@@H]1C[C@@H]2O + CN(C)c1ccc(Nc2c3ccc(NC(=O)CCN4CCCC4)cc3nc3cc(NC(=O)CCN4CCCC4)ccc23)cc1 | 616215-338-R-J1-PDC tumor spheroids, viability | lo |

## Task Textbook exercise: identify the category of the compound given here, Cc1[nH]c2ccccc2c1CCNCc1ccc(/C=C/C(=O)NO)cc1 + CN(C)c1ccc(Nc2c3ccc(NC(=O)CCN4CCCC4)cc3nc3cc(NC(=O)CCN4CCCC4)ccc23)cc1 , according to its measured value.
## Result lo

## Task Textbook exercise: identify the category of the compound given here, CC1COCCN1c1cc(C2(O)CC3CCC(C2)O3)c2cnn(-c3ccn[nH]3)c2n1 (stereo not given) + CN(C)c1ccc(Nc2c3ccc(NC(=O)CCN4CCCC4)cc3nc3cc(NC(=O)CCN4CCCC4)ccc23)cc1 , according to its measured value.
## Result med

## Task Textbook exercise: identify the category of the compound given here, COc1ccc([C@@H](O)c2cc(-c3ncnc4cc(N5CCOCC5)ccc34)c(F)cc2Cl)nn1 + Cc1[nH]c2ccc(F)cc2c1-c1nc2c3cccnc3c3ncccc3c2[nH]1 , according to its measured value.
## Result hi
